B1: INTS4 (parent)
chain: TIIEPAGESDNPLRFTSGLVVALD

Variants of: B1
test name: protein stability index of a GFP-peptide fusion (GPS, HEK-293T) (PSI 1-6); higher = more stable;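 note: lentivirally expressed fusions sorted by FACS into six bins by GFP to DsRed ratio, PSI derived from sequencing read proportions per bin multiplied by bin number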
recorded conditions: c terminus: a fixed tail appended
endpoint label: protein stability index
Just the number, please, no unit attached.

Some variants with recorded protein stability index:
D24C : 1.35
N11A : 3.13
I3K : 3.85
A22N : 3.18
V21P : 3.93

Hello, please tell me recorded protein stability index for this one: `P5I`
1.5

Hello, please tell me recorded protein stability index for this one: `P12V`
2.53

Hello, please tell me recorded protein stability index for this one: `T1M`
1.68

Hello, please tell me recorded protein stability index for this one: `T16D`
3.92

Hello, please tell me recorded protein stability index for this one: `S9P`
3.25

Hello, please tell me recorded protein stability index for this one: `L13G`
3.14

Hello, please tell me recorded protein stability index for this one: `S9W`
2.19
